Molecular target: PARK7 (Homo sapiens)
Sequence (Q99497 1-189): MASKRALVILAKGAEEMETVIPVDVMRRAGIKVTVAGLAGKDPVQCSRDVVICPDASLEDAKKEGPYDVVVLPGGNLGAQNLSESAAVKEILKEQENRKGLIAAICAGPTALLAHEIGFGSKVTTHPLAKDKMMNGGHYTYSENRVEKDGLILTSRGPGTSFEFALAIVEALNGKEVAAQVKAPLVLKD
Assay: High-throughput screen of the crude compound library, PARK7 fluorescence polarization (FP) assay with FP reagent JYQ-107
Assay type: biochemical
Conditions: 1.25 µM, crude compound library, FP reagent JYQ-107; read-out: HTS FP assay %Inhibition (1.25 µM)
metric_name: inhibition at 1.25 µM (%)

// lookup inhibition at 1.25 µM for N#CN1CC[C@@H](C(=O)Nc2nc3c(s2)CN(C(=O)C2CC(=O)N(OCc4ccccc4)C2)CC3)C1 (stereo partly drawn)
72.4

// lookup inhibition at 1.25 µM for N#CN1CC[C@@H](C(=O)Nc2nc3c(s2)CN(C(=O)CCC2CCCCC2)CC3)C1
78.3

// lookup inhibition at 1.25 µM for CC(C)(C)OC(=O)NC1(C(=O)N2CCc3nc(NC(=O)[C@@H]4CCN(C#N)C4)sc3C2)CC1
68.7

// lookup inhibition at 1.25 µM for N#CN1CC[C@@H](C(=O)Nc2nc3c(s2)CN(C(=O)c2nn(-c4ccccc4)c(=O)[nH]c2=O)CC3)C1
67.9

// lookup inhibition at 1.25 µM for N#CN1CC[C@@H](C(=O)Nc2nc3c(s2)CN(C(=O)c2cc([N+](=O)[O-])ccc2Br)CC3)C1
81.4

// lookup inhibition at 1.25 µM for N#CN1CC[C@@H](C(=O)Nc2nc3c(s2)CN(C(=O)c2ccc(C=O)cc2)CC3)C1
76.8

// lookup inhibition at 1.25 µM for N#CN1CC[C@@H](C(=O)Nc2nc3c(s2)CN(C(=O)Cc2ccc(NS(=O)(=O)c4cccc(C(F)(F)F)c4)cc2)CC3)C1
81

// lookup inhibition at 1.25 µM for N#CN1CC[C@@H](C(=O)Nc2nc3c(s2)CN(C(=O)c2ccccc2CCc2ccccc2)CC3)C1
79.7

// lookup inhibition at 1.25 µM for Cc1cccc(COc2cccc(C(=O)N3CCc4nc(NC(=O)[C@@H]5CCN(C#N)C5)sc4C3)c2)c1
87.5

// lookup inhibition at 1.25 µM for N#CN1CC[C@@H](C(=O)Nc2nc3c(s2)CN(C(=O)c2ccc(F)c(F)c2)CC3)C1
74.4

// lookup inhibition at 1.25 µM for N#CN1CC[C@@H](C(=O)Nc2nc3c(s2)CN(C(=O)c2cccnc2-n2cccn2)CC3)C1
71.9

// lookup inhibition at 1.25 µM for N#CN1CC[C@@H](C(=O)Nc2nc3c(s2)CN(C(=O)c2cccc4cc5ccccc5cc24)CC3)C1
80.6

// lookup inhibition at 1.25 µM for N#CN1CC[C@@H](C(=O)Nc2nc3c(s2)CN(C(=O)Cc2csc(C4CC4)n2)CC3)C1
81.4

// lookup inhibition at 1.25 µM for CN1CCN(CC(=O)N2CCc3nc(NC(=O)[C@@H]4CCN(C#N)C4)sc3C2)CC1
67.3

// lookup inhibition at 1.25 µM for N#CN1CC[C@@H](C(=O)Nc2nc3c(s2)CN(C(=O)c2cn[nH]c2C2CC2)CC3)C1
69.7

// lookup inhibition at 1.25 µM for Cn1cc(-c2cc(C(=O)N3CCc4nc(NC(=O)[C@@H]5CCN(C#N)C5)sc4C3)no2)cn1
83

// lookup inhibition at 1.25 µM for Cc1cncc(C(=O)N2CCc3nc(NC(=O)[C@@H]4CCN(C#N)C4)sc3C2)c1
68.5

// lookup inhibition at 1.25 µM for Cc1cc(OCC(=O)N2CCc3nc(NC(=O)[C@@H]4CCN(C#N)C4)sc3C2)ccc1C(C)C
80.3
